system: Vero E6 infected with SARS-CoV-2; experiment: morphology score (similarity to uninfected cells); higher = more like uninfected cells; details: 24 h
Measured Quantity: morphology score

# Compound, Measured Quantity, Result
rows = [
    ("CCCS(=O)(=O)Nc1ccc(F)c(C(=O)c2c[nH]c3ncc(-c4ccc(Cl)cc4)cc23)c1F [vemurafenib] (10 µM)", "morphology score", 0.25),
    ("OCC(O)CN1CCN(c2ccccc2)CC1 (stereo not drawn) [dropropizine] (10 µM)", "morphology score", 0.106),
    ("NC(=O)c1noc([C@H](CCCC2CCCCC2)CC(=O)NO)n1 (10 µM)", "morphology score", 0.51),
]
